Origin of measurements: ChEMBL document CHEMBL1909046

target: Adenosine receptor A2a (Homo sapiens, UniProt P29274); assay: DRUGMATRIX: Adenosine A2A radioligand binding (ligand: […]); type: cell membranes, HEK293, Membrane; conditions: hek293; Not Active = under 50% inhibition at 10 µM
Sequence (P29274 whole entry): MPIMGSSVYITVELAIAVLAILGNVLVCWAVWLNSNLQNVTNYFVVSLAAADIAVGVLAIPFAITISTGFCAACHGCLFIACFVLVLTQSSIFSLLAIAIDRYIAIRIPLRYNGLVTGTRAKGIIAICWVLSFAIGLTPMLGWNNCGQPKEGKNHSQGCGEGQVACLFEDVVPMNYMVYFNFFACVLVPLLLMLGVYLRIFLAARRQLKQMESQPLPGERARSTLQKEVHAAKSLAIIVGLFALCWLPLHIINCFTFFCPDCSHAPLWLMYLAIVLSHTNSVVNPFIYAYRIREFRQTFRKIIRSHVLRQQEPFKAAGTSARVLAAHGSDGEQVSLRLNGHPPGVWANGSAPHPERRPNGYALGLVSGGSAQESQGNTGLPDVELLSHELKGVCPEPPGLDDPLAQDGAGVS
reported property: IC50

CC[C@H](C)C(=O)O[C@H]1C[C@H](O)C=C2C=C[C@H](C)[C@H](CC[C@@H](O)C[C@@H](O)CC(=O)O)[C@H]21 :: Not Active
NC(=O)N1c2ccccc2C=Cc2ccccc21 [CARBAMAZEPINE] :: Not Active
O=C(/C=C/c1ccc(O)c(O)c1)OCCc1ccccc1 :: Not Active
NC[C@H]1O[C@H](O[C@H]2[C@H](O)[C@@H](O[C@H]3O[C@H](CO)[C@@H](O)[C@H](N)[C@H]3O)[C@H](N)C[C@@H]2N)[C@H](N)C[C@@H]1O :: Not Active
CC[C@H](C)C(=O)O[C@H]1C[C@@H](C)C=C2C=C[C@H](C)[C@H](CC[C@@H]3C[C@@H](O)CC(=O)O3)[C@H]21 :: Not Active

response.value for `CO[C@H]1C[C@@H]2CC[C@@H](C)[C@@](O)(O2)C(=O)C(=O)N2CCCC[C@H]2C(=O)O[C@H]([C@H](C)C[C@@H]2CC[C@@H](O)[C@H](OC)C2)CC(=O)[C@H](C)/C=C(\C)[C@@H](O)[C@@H](OC)C(=O)[C@H](C)C[C@H](C)/C=C/C=C/C=C/1C` (field: IC50) = Not Active

response.value for Nc1nc2c(c(=O)[nH]1)N(C=O)C(CNc1ccc(C(=O)N[C@@H](CCC(=O)O)C(=O)O)cc1)CN2 (stereo partly specified) (field: IC50) = Not Active

response.value for `N[C@@H](Cc1ccc(F)cc1)C(=O)O` (field: IC50) = Not Active

response.value for `CNC(=C[N+](=O)[O-])NCCSCc1csc(CN(C)C)n1` (field: IC50) = Not Active

response.value for CC(C)(Oc1ccc(C2CC2(Cl)Cl)cc1)C(=O)O (stereo unspecified) [CIPROFIBRATE] (field: IC50) = Not Active

response.value for Cc1c(F)c(N2CCNC(C)C2)cc2c1c(=O)c(C(=O)O)cn2C1CC1 (stereo unspecified) (field: IC50) = Not Active

response.value for `NC[C@@H]1O[C@H](O[C@H]2[C@@H](O)[C@H](O[C@@H]3[C@@H](O)[C@H](N)C[C@H](N)[C@H]3O[C@H]3O[C@H](CN)[C@@H](O)[C@H](O)[C@H]3N)O[C@@H]2CO)[C@H](N)[C@@H](O)[C@@H]1O` (field: IC50) = Not Active

response.value for `OCCO` (field: IC50) = Not Active

response.value for `O=C(c1ccccc1Cl)N1CCC(Cc2ccccc2)CC1` (field: IC50) = Not Active

response.value for CC(CCc1ccc(O)cc1)NCCc1ccc(O)c(O)c1 (stereo unspecified) (field: IC50) = Not Active

response.value for Cc1c(N(C)CS(=O)(=O)[O-])c(=O)n(-c2ccccc2)n1C.[Na+] [DIPYRONE SODIUM] (field: IC50) = Not Active

====

molecular target: UniProt:O70528; type: cell membranes, Dunkin-Hartley, Striatum, Membrane
Sequence (O70528 whole entry): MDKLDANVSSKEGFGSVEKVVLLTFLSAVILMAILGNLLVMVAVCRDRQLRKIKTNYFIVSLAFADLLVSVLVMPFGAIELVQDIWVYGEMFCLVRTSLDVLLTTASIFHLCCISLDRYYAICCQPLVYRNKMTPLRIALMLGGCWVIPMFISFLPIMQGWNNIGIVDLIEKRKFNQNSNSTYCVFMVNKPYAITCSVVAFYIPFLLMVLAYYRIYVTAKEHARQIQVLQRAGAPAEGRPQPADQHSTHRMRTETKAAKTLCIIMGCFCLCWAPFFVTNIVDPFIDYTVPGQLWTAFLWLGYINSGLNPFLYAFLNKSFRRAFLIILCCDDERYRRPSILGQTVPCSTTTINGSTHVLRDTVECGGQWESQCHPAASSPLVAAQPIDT
reported property: IC50

CC[C@H]1OC(=O)[C@H](C)[C@@H](O[C@H]2C[C@@](C)(OC)[C@@H](O)[C@H](C)O2)[C@H](C)[C@@H](O[C@@H]2O[C@H](C)C[C@H](N(C)C)[C@H]2O)[C@](C)(O)C[C@@H](C)CN(C)[C@H](C)[C@@H](O)[C@]1(C)O [AZITHROMYCIN] :: Not Active
Cc1cn[nH]c1 [FOMEPIZOLE] :: Not Active
CCC(=O)O[C@H]1[C@H](O[C@@H]2[C@@H](C)[C@H](O[C@H]3C[C@@](C)(OC)[C@@H](O)[C@H](C)O3)[C@@H](C)C(=O)O[C@H](CC)[C@@](C)(O)[C@H](O)[C@@H](C)C(=O)[C@H](C)C[C@@]2(C)O)O[C@H](C)C[C@@H]1N(C)C [ERYTHROMYCIN PROPIONATE] :: Not Active
Nc1nc2c(c(=O)[nH]1)N(C=O)C(CNc1ccc(C(=O)N[C@@H](CCC(=O)O)C(=O)O)cc1)CN2 (stereo partly specified) [LEUCOVORIN] :: Not Active
CCCCCC[C@H]1C(=O)O[C@H](C)[C@H](NC(=O)c2cccc(NC=O)c2O)C(=O)O[C@@H](C)[C@@H]1OC(=O)CC(C)C [ANTIMYCIN A] :: Not Active

--- query ---
response.value for COc1cc(CNC(=O)CCCC/C=C/C(C)C)ccc1O [CAPSAICIN] (field: IC50) = Not Active
